All figures here come from paper PMC9611727.

# Test Details: Plasma protein binding (RED dialysis), human
# Format: in vitro ADME
# Condition Set: both sexes, pooled human plasma, pH 7.4
Reported Metric: fraction unbound at 4 h, 1 µM
Reply briefly: the number, and no unit.

For record Cc1nc(N)c2c(-c3ccc(NC(=O)[C@H](O)c4cccc(Cl)c4)cc3F)cn(C)c2n1 [Compound 48] the listed fraction unbound at 4 h, 1 µM is 0.001

For record Cc1nc(N)c2c(-c3ccc(NC(=O)[C@H](O)c4cccc(C(F)(F)F)c4)cc3C)cn(C)c2n1 [Compound 26] the listed fraction unbound at 4 h, 1 µM is 0.002

For record Cc1nc(N)c2c(-c3ccc(NC(=O)[C@H](O)c4cccc(F)c4)c(F)c3F)cn(C)c2n1 [Compound 70] the listed fraction unbound at 4 h, 1 µM is 0.006

For record Cc1nc(N)c2c(-c3ccc(NC(=O)[C@H](O)c4cccc(F)c4)cc3C)cn(C)c2n1 [Compound 24] the listed fraction unbound at 4 h, 1 µM is 0.008

For record Cc1cc(F)cc([C@@H](O)C(=O)Nc2ccc(-c3cn(C)c4nc(C)nc(N)c34)c(C)c2)c1 [Compound 41] the listed fraction unbound at 4 h, 1 µM is 0.004

For record Cc1nc(N)c2c(-c3ccc(NC(=O)[C@H](O)c4cc(F)cc(F)c4)cc3C)cn(C)c2n1 [Compound 38] the listed fraction unbound at 4 h, 1 µM is 0.01

For record Cc1nc(N)c2c(-c3ccc(NC(=O)[C@H](O)c4cccc(Cl)c4)cc3C)cn(C)c2n1 [Compound 28] the listed fraction unbound at 4 h, 1 µM is 0.002

---

Provide the reported log10 of IC50 of each item.
# Tested On: PERK (Homo sapiens, UniProt Q9NZJ5)
# Sequence (Q9NZJ5 30-1116): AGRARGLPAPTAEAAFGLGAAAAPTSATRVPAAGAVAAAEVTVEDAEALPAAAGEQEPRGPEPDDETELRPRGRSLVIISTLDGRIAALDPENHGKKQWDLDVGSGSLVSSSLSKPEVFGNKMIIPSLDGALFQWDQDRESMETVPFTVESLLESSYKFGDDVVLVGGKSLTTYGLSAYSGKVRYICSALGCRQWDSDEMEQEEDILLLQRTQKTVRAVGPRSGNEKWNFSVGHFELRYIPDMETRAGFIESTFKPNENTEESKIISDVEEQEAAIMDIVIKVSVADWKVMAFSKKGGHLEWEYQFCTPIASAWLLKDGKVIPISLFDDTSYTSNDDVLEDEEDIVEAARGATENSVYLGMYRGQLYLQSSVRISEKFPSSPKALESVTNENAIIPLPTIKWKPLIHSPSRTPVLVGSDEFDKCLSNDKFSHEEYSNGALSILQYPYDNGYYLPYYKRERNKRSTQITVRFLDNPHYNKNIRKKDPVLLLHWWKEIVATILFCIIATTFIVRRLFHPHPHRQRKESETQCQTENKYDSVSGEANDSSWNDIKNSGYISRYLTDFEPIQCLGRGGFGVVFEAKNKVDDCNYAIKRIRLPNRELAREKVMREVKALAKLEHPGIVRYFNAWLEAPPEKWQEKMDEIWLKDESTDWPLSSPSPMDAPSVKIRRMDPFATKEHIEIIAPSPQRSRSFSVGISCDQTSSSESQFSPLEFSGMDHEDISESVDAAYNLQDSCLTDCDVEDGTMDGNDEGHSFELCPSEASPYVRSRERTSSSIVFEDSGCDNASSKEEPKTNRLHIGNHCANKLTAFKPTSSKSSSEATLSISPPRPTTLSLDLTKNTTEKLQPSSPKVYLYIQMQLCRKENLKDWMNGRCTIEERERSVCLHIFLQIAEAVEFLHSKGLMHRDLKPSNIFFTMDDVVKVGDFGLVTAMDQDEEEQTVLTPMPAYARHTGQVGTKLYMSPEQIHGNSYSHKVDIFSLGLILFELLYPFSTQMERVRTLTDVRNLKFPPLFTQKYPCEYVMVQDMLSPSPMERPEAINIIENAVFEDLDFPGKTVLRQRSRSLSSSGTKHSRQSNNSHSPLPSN
# Test Details: PERK biochemical LanthaScreen TR-FRET assay (GFP-eIF2a phosphorylation)
# Condition Set: cell-free TR-FRET, GFP-eIF2a substrate; read-out: PERK IC50
# Method: Methods used to evaluate biochemical PERK activity are described and published elsewhere. In brief, biochemical PERK activity is evaluated using a LanthaScreenTM ([…]) TR-FRET assay to detect phosphorylation of a GFP-tagged eIF2a substrate (ThermoFisher). […] FRET was measured by an EnVision Plate Reader (PerkinElmer). […] IC50 values were calculated using 4-parameter logistical fitting in XLFit. The PERK activity of analog I was evaluated using cell-free biochemical assays. […]
The figures below represent log10 of IC50, where IC50 is stated in nM.

For record `Cc1nc(N)c2c(-c3ccc(NC(=O)[C@H](O)c4ccccc4Cl)cc3C)cn(C)c2n1` the listed log10 of IC50 is 2.03

For record `Cc1nc(N)c2c(-c3ccc(NC(=O)[C@H](O)c4cccc(F)c4)c(F)c3C)cn(C)c2n1` the listed log10 of IC50 is 0.28

For record `Cc1nc(N)c2c(-c3cnc(NC(=O)[C@H](O)c4cccc(F)c4)nc3C)cn(C)c2n1` the listed log10 of IC50 is 2.81

For record `Cc1nc(N)c2c(-c3ccc(NC(=O)[C@H](O)c4cccc(F)c4)c(F)c3F)cn(C)c2n1` the listed log10 of IC50 is 0.18

For record `Cc1nc(N)c2c(-c3ccc(NC(=O)[C@H](O)c4cccc(Cl)c4)cc3Cl)cn(C)c2n1` the listed log10 of IC50 is 0.20

For record `Cc1nc(N)c2c(-c3ccc(NC(=O)[C@H](O)c4cccc(F)c4)nc3C)cn(C)c2n1` the listed log10 of IC50 is 1.23

For record `Cc1nc(N)c2c(-c3ccc(NC(=O)[C@H](O)c4cccc(Cl)c4)cc3C)cn(C)c2n1` the listed log10 of IC50 is 0.26

For record `Cc1nc(N)c2c(-c3ccc(NC(=O)[C@H](O)c4cccc(C(F)(F)F)c4)cc3F)cn(C)c2n1` the listed log10 of IC50 is 0.71

For record `Cc1nc(N)c2c(-c3ccc(NC(=O)[C@H](O)c4cncc(F)c4)cc3C)cn(C)c2n1` the listed log10 of IC50 is 1.72

For record `Cc1nc(N)c2c(-c3ccc(NC(=O)[C@H](O)c4cccc(Br)c4)cc3)cn(C)c2n1` the listed log10 of IC50 is 0.18

For record `Cc1cc(NC(=O)[C@H](N)c2ccccc2)ccc1-c1cn(C)c2ncnc(N)c12` the listed log10 of IC50 is 1.52

For record `Cc1nc(N)c2c(-c3ccc(NC(=O)[C@H](O)c4cccc(C(F)(F)F)c4)cc3Cl)cn(C)c2n1` the listed log10 of IC50 is 0.43

For record `Cc1nc(N)c2c(-c3ccc(NC(=O)[C@H](O)c4cccc(F)c4)cc3C)cn(C)c2n1` the listed log10 of IC50 is 1.30

For record Cc1nc(N)c2c(-c3ccc(NC(=O)C(O)c4ccccc4C)cc3C)cn(C)c2n1 (stereo not shown) the listed log10 of IC50 is 1.41

For record `Cc1nc(N)c2c(-c3ccc(NC(=O)[C@H](O)c4cccc(F)c4)cc3)cn(C)c2n1` the listed log10 of IC50 is 0.30

For record Cc1nc(N)c2c(-c3c(C)cc(NC(=O)C(O)c4cccc(F)c4)cc3F)cn(C)c2n1 (stereo not shown) the listed log10 of IC50 is 1.34

---

# Test Details: Plasma protein binding (RED dialysis), dog
# Type: in vitro ADME
# Condition Set: male, beagle, pH 7.4
Provide the reported fraction unbound at 4 h, 1 µM of each item.
Reply briefly: the number, and no unit.

For record Cc1nc(N)c2c(-c3ccc(NC(=O)[C@H](O)c4cccc(C(F)(F)F)c4)cc3C)cn(C)c2n1 [Compound 26] the listed fraction unbound at 4 h, 1 µM is 0.005

For record Cc1nc(N)c2c(-c3ccc(NC(=O)[C@H](O)c4cccc(F)c4)c(F)c3C)cn(C)c2n1 [Compound 65] the listed fraction unbound at 4 h, 1 µM is 0.013

For record Cc1nc(N)c2c(-c3ccc(NC(=O)[C@H](O)c4cccc(Cl)c4)cc3C)cn(C)c2n1 [Compound 28] the listed fraction unbound at 4 h, 1 µM is 0.017

For record Cc1nc(N)c2c(-c3ccc(NC(=O)[C@H](O)c4cccc(F)c4)c(F)c3F)cn(C)c2n1 [Compound 70] the listed fraction unbound at 4 h, 1 µM is 0.006

For record Cc1nc(N)c2c(-c3cc(F)c(NC(=O)[C@H](O)c4cccc(F)c4)cc3C)cn(C)c2n1 [Compound 66] the listed fraction unbound at 4 h, 1 µM is 0.018

For record Cc1nc(N)c2c(-c3ccc(NC(=O)[C@H](O)c4cccc(Cl)c4)cc3F)cn(C)c2n1 [Compound 48] the listed fraction unbound at 4 h, 1 µM is 0.004

For record Cc1nc(N)c2c(-c3ccc(NC(=O)[C@H](O)c4cccc(F)c4)cc3C)cn(C)c2n1 [Compound 24] the listed fraction unbound at 4 h, 1 µM is 0.03

For record Cc1nc(N)c2c(-c3ccc(NC(=O)[C@H](O)c4cc(F)cc(F)c4)cc3C)cn(C)c2n1 [Compound 38] the listed fraction unbound at 4 h, 1 µM is 0.016

For record Cc1cc(F)cc([C@@H](O)C(=O)Nc2ccc(-c3cn(C)c4nc(C)nc(N)c34)c(C)c2)c1 [Compound 41] the listed fraction unbound at 4 h, 1 µM is 0.012

---

# Test Details: Mouse plasma PK after oral gavage
# Format: in vivo
# Condition Set: female, CD1, mouse, mice, 10 mg/kg PO
Provide the reported Cmax of each item.
Your answer should be a plain number; it is taken to be in ng/mL.

For record Cc1nc(N)c2c(-c3ccc(NC(=O)[C@H](O)c4cc(F)cc(C(F)(F)F)c4)cc3C)cn(C)c2n1 [Compound 39] the listed Cmax is 14300

For record Cc1nc(N)c2c(-c3ccc(NC(=O)[C@H](O)c4cccc(Cl)c4)cc3F)cn(C)c2n1 [Compound 48] the listed Cmax is 3020

For record Cc1nc(N)c2c(-c3ccc(NC(=O)[C@H](O)c4cccc(Cl)c4)cc3C)cn(C)c2n1 [Compound 28] the listed Cmax is 14100

For record Cc1nc(N)c2c(-c3cc(F)c(NC(=O)[C@H](O)c4cccc(F)c4)cc3C)cn(C)c2n1 [Compound 66] the listed Cmax is 9610

For record Cc1nc(N)c2c(-c3ccc(NC(=O)[C@H](O)c4cccc(F)c4)c(F)c3C)cn(C)c2n1 [Compound 65] the listed Cmax is 8150

For record Cc1nc(N)c2c(-c3ccc(NC(=O)[C@H](O)c4cccc(F)c4)cc3C)cn(C)c2n1 [Compound 24] the listed Cmax is 13100

For record Cc1cc(F)cc([C@@H](O)C(=O)Nc2ccc(-c3cn(C)c4nc(C)nc(N)c34)c(C)c2)c1 [Compound 41] the listed Cmax is 12500

For record Cc1nc(N)c2c(-c3ccc(NC(=O)[C@H](O)c4cc(F)cc(F)c4)cc3C)cn(C)c2n1 [Compound 38] the listed Cmax is 8600

For record Cc1nc(N)c2c(-c3ccc(NC(=O)[C@H](O)c4cccc(F)c4)c(F)c3F)cn(C)c2n1 [Compound 70] the listed Cmax is 9720

For record Cc1nc(N)c2c(-c3ccc(NC(=O)[C@H](O)c4cccc(C(F)(F)F)c4)cc3C)cn(C)c2n1 [Compound 26] the listed Cmax is 17200
